Listed here are compounds together with their documented melting point.

>  <compound>
COc1ccc(OCCCC(=O)O)cc1

>  <melting point>
101 to 105 °C

$$$$
>  <compound>
O=C(O)C1(Sc2ccccc2)CCCC1

>  <melting point>
65 to 67 °C

$$$$
>  <compound>
NS(=O)(=O)c1ccc(C(=O)NCC(=O)O)cc1

>  <melting point>
192 to 194 °C

$$$$
>  <compound>
CC(=O)c1cccc(NS(C)(=O)=O)c1

>  <melting point>
91 to 93 °C

$$$$
>  <compound>
NC(CCO)c1ccc(F)cc1 (configuration not stated)

>  <melting point>
67 to 69 °C

$$$$

QUERY: Return value of melting point for input CC(CC(N)=S)n1cc(Cl)cn1 (configuration not stated) , no commentary.
RESULT: 128 to 130 °C

QUERY: Note melting point for the compound shown: Cc1nn(CCO)c(C)c1C=O
RESULT: 67 to 69 °C

----------
List of melting point values.

>  <molecule>
O=C(O)CCn1ncc(=O)c2ccccc21

>  <melting point>
130 to 132 °C

$$$$
>  <molecule>
O=C(O)c1cc(-c2ccc(Cl)c(Cl)c2)ns1

>  <melting point>
208 to 210 °C

$$$$
>  <molecule>
CN(C)CCN1CC(C(=O)O)CC1=O (centres undefined)

>  <melting point>
162 to 164 °C

$$$$

Pending molecule:
QUERY: Specify measured melting point for Oc1cccc2ccc(N3CCCC3)nc12 .
RESULT: 85 to 87 °C

----------
This section presents molecules with their documented melting point values.

>  <molecule>
O=C(O)C1(c2cccc(C(F)(F)F)c2)CCOCC1

>  <melting point>
147 to 149 °C

$$$$
>  <molecule>
Nc1nncc(-c2ccccc2OC(F)F)n1

>  <melting point>
159 to 161 °C

$$$$

QUERY: Specify melting point for CC(=O)c1ccc2cccc3c2c1CC3 and stop.
RESULT: 104 to 106 °C

QUERY: Determine from records and report melting point for O=C(O)Cc1ccc2c(c1)CCCC2
RESULT: 78 to 80 °C

QUERY: Respond only with melting point recorded for COc1ccc(C(C)=O)c2ccccc12
RESULT: 64 to 66 °C

QUERY: Note down melting point recorded for Cc1cccc(NC(=O)CCN)n1
RESULT: 105 to 106 °C

QUERY: Give the reported melting point for this molecule. COc1cc(N)ccc1S(=O)(=O)Nc1ccc(F)c(Cl)c1
RESULT: 165 to 167 °C

QUERY: Answer with the recorded melting point of O=C1Nc2c(Cl)cc(Br)cc2C1=O only.
RESULT: 225 to 227 °C

QUERY: Please indicate melting point recorded for N#CCN1CCN(Cc2ccccc2)CC1
RESULT: 49 to 51 °C

QUERY: Give melting point for NNC(=O)C1CCC1
RESULT: 91 to 93 °C

QUERY: Report measured melting point; entry is CC(C)(C)n1cnnc1SCC(=O)O
RESULT: 161 to 163 °C

QUERY: For the molecule CC(C)(C)OC(=O)N1CC(OCC(=O)O)C1 , report melting point.
RESULT: 93 to 95 °C

QUERY: Report measured melting point; entry is CNCCC1CCN(C2CCN(C)CC2)CC1
RESULT: 48 to 50 °C

QUERY: Using the record for Nc1cc(Cl)c(Cl)cn1 , state its measured melting point.
RESULT: 140 to 142 °C

QUERY: Identify measured melting point associated with COc1cccc(NCc2nnc3n2CCCCC3)c1
RESULT: 176 to 180 °C

----------
metric: melting point

These recorded examples may help you get a feel for the data.
>  <compound>
COc1cc(C(=O)O)cc2c1OCCO2

>  <melting point>
203 to 205 °C

$$$$
>  <compound>
CC(C)(C)c1nonc1N

>  <melting point>
90 to 92 °C

$$$$

QUERY: Query melting point for NC(=O)c1ccc(S(N)(=O)=O)s1
RESULT: 214 to 216 °C

QUERY: Give me measured melting point, please, for this compound: CC1(c2ccc(Br)s2)NC(=O)NC1=O (centres undefined)
RESULT: 184 to 186 °C

----------
The entries below come with measured melting point values attached.

Known results for molecules:
>  <molecule>
O=C(O)c1cccc(S(=O)(=O)Nc2ccc(Cl)cc2)c1

>  <result>
250 to 252 °C

$$$$
>  <molecule>
O=C(O)c1ccc(N2CCOCC2)c(F)c1

>  <result>
220 to 222 °C

$$$$
>  <molecule>
O=C(CCl)Nc1ccncc1

>  <result>
295 to 297 °C

$$$$
>  <molecule>
CCOC(=O)c1nc(C)n[nH]1

>  <result>
184 to 186 °C

$$$$
>  <molecule>
COc1cc2c(cc1OC)S(=O)(=O)NC2=O

>  <result>
279 to 281 °C

$$$$

QUERY: Find the measured melting point of Cc1cc(S(N)(=O)=O)c(C)s1 and report it.
RESULT: 139 to 141 °C

QUERY: Indicate its recorded melting point; the molecule in question is O=C(O)C1CC1c1ccccc1OC(F)F (stereo not given)
RESULT: 63 to 65 °C

QUERY: Respond only with melting point recorded for O=C(O)C=Cc1cncc2ccccc12
RESULT: 260 to 262 °C

QUERY: Tell me melting point reported for O=C(CCl)NC(c1ccc(F)cc1)c1cccs1 (stereo not given)
RESULT: 124 to 126 °C

QUERY: Supply measured melting point of O=C(O)c1sc(-c2ccccc2)nc1C(F)F in your reply.
RESULT: 179 to 181 °C

QUERY: Determine from records and report melting point for Nc1ccc2oc(-c3ccccc3F)nc2c1
RESULT: 166 to 168 °C

QUERY: Given O=C(CCl)N1CCc2cc(S(=O)(=O)N3CCCCC3)ccc21 , respond with its melting point.
RESULT: 185 to 187 °C

QUERY: Identify measured melting point corresponding to CCOC(=O)c1nc(NCCc2ccccc2)sc1C
RESULT: 109 to 111 °C

QUERY: Give melting point for NC(=O)NCc1cccs1
RESULT: 128 to 132 °C

QUERY: Specify reported melting point for the molecule shown: CCNC(=O)c1ccc(C)c(N)c1
RESULT: 74 to 76 °C

----------
Recorded measurements of melting point, one per entry

Past entries and their recorded results:
>  <compound>
CCOc1ccccc1OCCCC(=O)O

>  <melting point>
66 to 68 °C

$$$$
>  <compound>
Sc1nnc(-c2cccs2)n1CC1CCCO1 (stereo not drawn)

>  <melting point>
107 to 108 °C

$$$$
>  <compound>
NS(=O)(=O)N1CCCNCC1

>  <melting point>
118 to 120 °C

$$$$
>  <compound>
Clc1cc2c(cc1Cl)OCO2

>  <melting point>
71 to 73 °C

$$$$
>  <compound>
CN1CCN(C)c2cc(N)ccc2C1=O

>  <melting point>
188 to 190 °C

$$$$
>  <compound>
Cc1cc(C(=O)O)nn1-c1ccc(F)cc1

>  <melting point>
152 to 154 °C

$$$$
>  <compound>
O=C(O)c1ccc2[nH]c(=O)oc2c1

>  <melting point>
307 to 309 °C

$$$$

For the next question, use this compound.
QUERY: Report melting point, nothing else, for this compound: CCOC(=O)c1cc(C2CC2)nc2onc(C(C)C)c12
RESULT: 48 to 50 °C

----------
# melting point annotations

Answered examples (2):
>  <molecule>
Cc1cc(C)n(CCCCl)n1

>  <melting point>
202 to 204 °C

$$$$
>  <molecule>
Cc1n[nH]c(C)c1CCO

>  <melting point>
122 to 124 °C

$$$$

QUERY: Report melting point for Cc1ccc(-n2nc(C(=O)O)c3c2CCC3)c(F)c1
RESULT: 219 to 221 °C

QUERY: // Input: O=C(O)Cn1nc2n(c1=O)CCCCC2 . Output its melting point only.
RESULT: 229 to 231 °C

----------
metric: melting point

>  <compound>
NCc1ccccc1CN1CCC(O)CC1

>  <melting point>
83 to 85 °C

$$$$

QUERY: Supply reported melting point belonging to this compound: Cc1nc(-c2ccc(N)cc2)cc(=O)[nH]1
RESULT: 259 to 261 °C

QUERY: Identify measured melting point associated with CN1CCC(n2ncc3cc(Br)cnc32)CC1
RESULT: 120 to 122 °C

----------
metric: melting point

>  <molecule>
Cc1cc(C(=O)CCl)c(C)n1-c1nccs1

>  <melting point>
85 to 95 °C

$$$$
>  <molecule>
O=C(NCc1ccncc1)c1ccc(O)c(Cl)c1

>  <melting point>
179 to 181 °C

$$$$
>  <molecule>
O=[N+]([O-])c1ccc(Cc2nnn[nH]2)cc1

>  <melting point>
178 to 180 °C

$$$$

Next item in the queue.
QUERY: Report melting point for Nc1ncon1
RESULT: 104 to 106 °C
